Each recorded value in this set is attributed to paper PMC4812296.

- experimental.target: thrombin (Bos taurus)
- measurement.description: chromogenic S-2238 hydrolysis assay, bovine plasma thrombin
assay.readout: IC50 (µM)
Report as a plain number; the unit µM is understood.

The cases that follow already have their IC50 on record.
Cc1coc2c1C(=O)C(=O)c1c-2ccc2c1CCCC2(C)C [peak 18, Tanshinone IIA] :: 39
Cc1cccc2c3c(ccc12)C1=C(C(=O)C3=O)[C@@H](C)CO1 (single isomer, unassigned) [peak 15, Dihydrotanshinone I] :: 92
C[C@H]1COC2=C1C(=O)C(=O)c1c2ccc2c1CCCC2(C)C (single isomer, unassigned) [peak 16, Cryptotanshinone] :: 102

Give the reported value of IC50 for this record: Cc1coc2c1C(=O)C(=O)c1c-2ccc2c(C)cccc12 [peak 17, Tanshinone I]
333
